B1: ZNF449 (parent)
chain: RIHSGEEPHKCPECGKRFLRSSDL

# Variants of: B1
# ASSAY_OVERVIEW: protein stability index of a GFP-peptide fusion (GPS, HEK-293T) (PSI 1-6); higher = more stable;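 further: lentivirally expressed fusions sorted by FACS into six bins by GFP to DsRed ratio, PSI derived from sequencing read proportions per bin multiplied by bin number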
# REPORTED_CONDITIONS: c terminus: a fixed tail appended
Field: class. Source value: protein stability index. Ranges: low = under 3, medium = from 3 up to 4, high = 4 and over

[ask] Which bin, given its protein stability index, does S4D occupy?
[reply] medium

[ask] Please indicate the class for H3I based on its protein stability index.
[reply] medium

[ask] The entry to classify is K16H ; which class holds it?
[reply] medium

[ask] Bin? L24R
[reply] low

[ask] Would you mind sorting P12D into the appropriate category?
[reply] high

[ask] Please let me know in which category the item E6Q belongs.
[reply] medium

[ask] Which protein stability index band matches P8E ?
[reply] medium

[ask] Consider L24Q . To which protein stability index class does it belong?
[reply] high

[ask] For E7A , which protein stability index bin applies?
[reply] low

[ask] Determine which band this variant sits in: H3D
[reply] medium

[ask] Please indicate the class for K10A based on its protein stability index.
[reply] medium

[ask] Could you tell me which band G15K belongs to?
[reply] medium

[ask] Kindly identify the class of D23L .
[reply] low

[ask] // bin(item) where item = K16Q
[reply] medium

[ask] Classify this variant: S4H
[reply] medium

[ask] Please indicate the class for F18E based on its protein stability index.
[reply] high

[ask] Class label required: S22M
[reply] low

[ask] Could you tell me which band H9S belongs to?
[reply] medium

[ask] Hey, which category is R20Q in, do you know?
[reply] high
